target under test: GST-Bfl-1 (Homo sapiens)
Construct: lacking their C-terminal transmembrane domains (about the last 20 amino acids) (“ΔTM”); made in house; host or cells: XL-1 Blue E. coli, pGEX 4T-1
procedure details: Bfl-1/FITC-Bid BH3 competitive fluorescence polarization assay
Assay type: binding
setup conditions: primary HTS hits, MLSCN library (PubChem SIDs), Table 5B
readout label: FRatio

| molecule | target under test | readout label | numeric value |
| --- | --- | --- | --- |
| O=C(Nc1ccccc1)c1ccc2nc(-c3ccco3)c(-c3ccco3)nc2c1 [Compound 4258186] | GST-Bfl-1 (Homo sapiens) | FRatio | 0.88 |
| Cc1ccc2c(Cl)cc(Cl)c(OCC(=O)NCc3ccco3)c2n1 [Compound 14747102] | GST-Bfl-1 (Homo sapiens) | FRatio | 0.8 |
| CCOC(=O)N1CCN(c2cc(NCCC(=O)O)c3c4c(onc24)-c2ccccc2C3=O)CC1 [Compound 4252106] | GST-Bfl-1 (Homo sapiens) | FRatio | 0.86 |
| O=C(NCCN1CCCCCC1)C1CCC(CNS(=O)(=O)c2cccc3cccnc23)CC1 (stereo not shown) [Compound 7969436] | GST-Bfl-1 (Homo sapiens) | FRatio | 0.97 |
| CCOc1ccc2nc(O)c(O)nc2c1 [Compound 4261310] | GST-Bfl-1 (Homo sapiens) | FRatio | 1.46 |
| O=C(O)c1cccc(-n2cccc2/C=N/O)c1 [Compound 4243236] | GST-Bfl-1 (Homo sapiens) | FRatio | 0.86 |
| COC(=O)C1=C(C)N(c2ccccc2)/C(=C/c2cccs2)C1=O [Compound 17415043] | GST-Bfl-1 (Homo sapiens) | FRatio | 0.53 |

---

target under test: GST-Bcl-B (Homo sapiens, UniProt Q9HD36)
Sequence (Q9HD36 1-182 limits assumed): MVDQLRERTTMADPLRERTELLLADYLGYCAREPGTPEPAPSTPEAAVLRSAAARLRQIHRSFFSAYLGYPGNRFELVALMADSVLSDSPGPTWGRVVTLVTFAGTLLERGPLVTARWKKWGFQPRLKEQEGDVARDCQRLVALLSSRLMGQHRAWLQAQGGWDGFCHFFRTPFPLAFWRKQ
procedure details: Bcl-B/FITC-TR3-r8 fluorescence polarization competition (displacement) assay, HTS and dose-response
setup conditions: read-out: Result Value (% Inhibition)
readout label: inhibition at 0.02 µM

| structure | result |
| --- | --- |
| O=c1c(O)c(-c2cc(O)c(O)c(O)c2)oc2cc(O)cc(O)c12 | 61% |
| Cc1nc(/N=N\c2cc(S(=O)(=O)O)c3cc([N+](=O)[O-])cc(S(=O)(=O)O)c3c2)c(COP(=O)(O)O)c(C=O)c1O | 66.6% |
| C[C@H](Cc1ccc(O)c(O)c1)[C@@H](C)Cc1ccc(O)c(O)c1 | 67.5% |
| N#C/C(=C\c1ccc(O)c(O)c1)C(=O)c1ccc(O)c(O)c1 | 61.7% |
| O=C(c1cc(O)c(O)c([N+](=O)[O-])c1)c1ccccc1F | 69.6% |
| Nc1c(S(=O)(=O)O)cc(Nc2ccc(Nc3nc(Cl)nc(Nc4ccc(S(=O)(=O)O)cc4)n3)c(S(=O)(=O)O)c2)c2c1C(=O)c1ccccc1C2=O | 80.8% |
| O=c1c(O)c(-c2ccc(O)c(O)c2)oc2cc(O)cc(O)c12 | 52% |
| O=C(O)C1=CC(=C(c2ccc(O)c(C(=O)O)c2)c2ccc(O)c(C(=O)O)c2)C=CC1=O | 107% |

---

FRatio listing for selected compounds.
target under test: GST-Bfl-1 (Homo sapiens, UniProt Q16548)
Construct: lacking their C-terminal transmembrane domains (about the last 20 amino acids) (“ΔTM”); made in house; host or cells: XL-1 Blue E. coli, pGEX 4T-1
Sequence (Q16548 1-155 limits assumed): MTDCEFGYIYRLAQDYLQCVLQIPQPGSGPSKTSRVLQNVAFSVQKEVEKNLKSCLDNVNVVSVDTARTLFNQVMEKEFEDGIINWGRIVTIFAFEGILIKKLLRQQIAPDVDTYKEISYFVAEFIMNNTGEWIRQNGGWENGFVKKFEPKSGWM
procedure details: Bfl-1/FITC-Bid BH3 competitive fluorescence polarization assay
Format: binding
setup conditions: primary HTS hits, MLSCN library (PubChem SIDs), Table 5B

| compound | FRatio |
| --- | --- |
| c1ccc(CSc2nnc(-c3ccco3)c(-c3ccco3)n2)cc1 | 0.72 |
| CCn1ccc(C(=O)Nc2ccc(S(=O)(=O)Nc3ccccc3OC)cc2)n1 | 0.87 |
| O=C(Nc1ccc(N2CCCC2)cc1)C(c1ccccc1)c1ccccc1 | 0.9 |
| Cc1ccc(NC(=O)CSc2nnc(-c3ccco3)c(-c3ccco3)n2)cc1 | 1.34 |
| CN(C)S(=O)(=O)N(CC(=O)N(Cc1ccccc1)Cc1ccccc1)c1ccccc1 | 0.73 |
| O=[N+]([O-])c1cc(-c2ccc(/C=N/c3nc4ccccn4c3-c3ccco3)o2)ccc1Cl | 0.99 |
| Nc1cc2nsnc2cc1Br | 1.42 |
| O=C(C[n+]1ccc(C(=O)N/N=C/c2ccc(O)cc2)cc1)c1ccccc1 | 0.72 |
| CC(=N)/C(C#N)=C(/O)CSc1nnc(Nc2c(C)cccc2C)s1 | 0.63 |
| CCn1c(SCC(=O)O)nc2sc3c(c2c1=O)CCC3 | 0.85 |
| N/C(=N\N=C\c1ccc(-c2ccc(O)c(C(=O)O)c2)o1)N[N+](=O)[O-] | 0.7 |
| CC(=N)/C(C#N)=C(\O)CSc1nc2ccccc2[nH]1 | 0.67 |
| COc1cccc(N2CCN(Cc3ccsc3)CC2)c1 | 0.85 |
| CCOC(=O)C1=C(C)S/C(=C\N(C)C)C1=O | 0.91 |
| COCCN1CCN2C(=NC3CC(NC(=O)NC4CCCCC4)CCC32)C1 (centres unmarked) | 0.73 |
| O=c1c2cc(N3CCOCC3)ccc2[nH]c(=S)n1CCCN1CCCCCC1 | 0.65 |
| CCOC(=O)c1ccc(NC2=CC(=O)C(=O)c3ccccc32)cc1 | 1.15 |
| CCc1ccc(NC(=O)c2noc3c2CCC3)cc1 | 0.73 |
| O=C(COc1ccccc1C(=O)N/N=C/c1ccc(O)c(O)c1)N/N=C/c1ccc(O)c(O)c1 | 0.77 |
| CCOc1cc(/C=C2\C(=O)N(c3nc(-c4ccc(Br)cc4)cs3)N=C2c2ccccc2)ccc1O | 0.76 |
| Cc1ccc(S(=O)(=O)NCC(=O)OCC(=O)Nc2ncc(Cl)cc2Cl)cc1 | 0.8 |
| CCC1=[N+](C)CCn2c(C)ccc21 | 1 |
| C=CCSc1nnc2nc3c(nn12)c1cc(C)ccc1n3CC=C | 0.82 |
| Cc1cccn2c(=O)c3cc(C(=O)NCC4CCCO4)c(=N)n(Cc4cccnc4)c3nc12 (centres unmarked) | 0.89 |
| O=C(N/N=C/c1ccc(F)cc1)c1cc(-c2ccco2)nc2ccccc12 | 0.87 |
| CCS(=O)(=O)N1Cc2ccccc2CC1C(=O)N1CCN(c2cccc(C)c2C)CC1 (centres unmarked) | 0.25 |
| CC(=O)C1=C(C)OC(N)=C(C#N)C1c1ccco1 (centres unmarked) | 1.13 |
| ClC1=CCC2CN(CCN3CCCCC3)CC2C1 (centres unmarked) | 0.79 |
| Oc1ccc(C2=Nn3c(nnc3-c3ccco3)SC2)cc1O | 0.82 |
| Cc1cc(C)c(NC(=O)CN(c2ccccc2)S(=O)(=O)N(C)C)c(C)c1 | 0.65 |
| Cn1c(SCC(=O)Nc2ccc3nc(SCC(=O)N4CCCC4)sc3c2)nnc1-c1ccc(N)cc1 | 0.79 |
| O=C(NCc1ccccn1)c1ccc2nc(-c3ccco3)c(-c3ccco3)nc2c1 | 1.18 |
| CC(=O)c1c(COC(=O)c2ccco2)nc2ccccc2[n+]1[O-] | 0.88 |
| Cc1ccccc1C1C(=O)c2sc3nc4c(c(=O)n3c2C1=O)CCC4 (centres unmarked) | 0.88 |
| O=C(COC(=O)CN1C(=O)c2ccccc2C1=O)Nc1ncc(Cl)cc1Cl | 1.36 |

---

target under test: GST-Bfl-1 (Homo sapiens)
Construct: lacking their C-terminal transmembrane domains (about the last 20 amino acids) (“ΔTM”); made in house; host or cells: XL-1 Blue E. coli, pGEX 4T-1
procedure details: Bfl-1/FITC-Bid BH3 competitive fluorescence polarization assay
Format: binding
setup conditions: primary HTS hits, MLSCN library (PubChem SIDs), Table 5B
Method: A FPA was performed to determine the binding affinity of FITC-Bid BH3 peptide to Bcl-2 proteins. […] IC50 determinations were performed using GraphPad Prism software (GraphPad, Inc., San Diego, Calif.). […] Fluorescence polarization was measured after 10 min. Compounds that reduced the fluorescence polarization by 50% were considered hits.

| molecule | FRatio |
| --- | --- |
| O=c1oc2c3c4c(cc2s1)CCCN4CCC3 [Compound 7978324] | 1.02 |
| CCn1c(SC(C)C(=O)O)nc2sc3c(c2c1=O)CCC3 (centres unmarked) [Compound 856662] | 0.59 |
| Cc1cccc(OCC(=O)Nc2ccc(N3CCCC3)cc2)c1C [Compound 7975075] | 0.72 |
| O=C1NC(=O)[C@]2(Cc3ccccc3N3CCN(c4ccccc4)CC32)C(=O)N1c1ccccc1 (some centres unmarked) [Compound 865821] | 1.21 |
| CSc1nc2n(n1)C(c1ccccn1)C1=C(O)CC(C)(C)CC1=N2 (centres unmarked) [Compound 14742716] | 0.84 |
